Molecular target: TbVCL2 (Trypanosoma brucei, UniProt Q389H3)
Construct: full-length, untagged cRNA in Xenopus laevis oocytes; dimer expected (CLC family), heterodimer with endogenous Xenopus CLC not excluded
Sequence (Q389H3 1-941): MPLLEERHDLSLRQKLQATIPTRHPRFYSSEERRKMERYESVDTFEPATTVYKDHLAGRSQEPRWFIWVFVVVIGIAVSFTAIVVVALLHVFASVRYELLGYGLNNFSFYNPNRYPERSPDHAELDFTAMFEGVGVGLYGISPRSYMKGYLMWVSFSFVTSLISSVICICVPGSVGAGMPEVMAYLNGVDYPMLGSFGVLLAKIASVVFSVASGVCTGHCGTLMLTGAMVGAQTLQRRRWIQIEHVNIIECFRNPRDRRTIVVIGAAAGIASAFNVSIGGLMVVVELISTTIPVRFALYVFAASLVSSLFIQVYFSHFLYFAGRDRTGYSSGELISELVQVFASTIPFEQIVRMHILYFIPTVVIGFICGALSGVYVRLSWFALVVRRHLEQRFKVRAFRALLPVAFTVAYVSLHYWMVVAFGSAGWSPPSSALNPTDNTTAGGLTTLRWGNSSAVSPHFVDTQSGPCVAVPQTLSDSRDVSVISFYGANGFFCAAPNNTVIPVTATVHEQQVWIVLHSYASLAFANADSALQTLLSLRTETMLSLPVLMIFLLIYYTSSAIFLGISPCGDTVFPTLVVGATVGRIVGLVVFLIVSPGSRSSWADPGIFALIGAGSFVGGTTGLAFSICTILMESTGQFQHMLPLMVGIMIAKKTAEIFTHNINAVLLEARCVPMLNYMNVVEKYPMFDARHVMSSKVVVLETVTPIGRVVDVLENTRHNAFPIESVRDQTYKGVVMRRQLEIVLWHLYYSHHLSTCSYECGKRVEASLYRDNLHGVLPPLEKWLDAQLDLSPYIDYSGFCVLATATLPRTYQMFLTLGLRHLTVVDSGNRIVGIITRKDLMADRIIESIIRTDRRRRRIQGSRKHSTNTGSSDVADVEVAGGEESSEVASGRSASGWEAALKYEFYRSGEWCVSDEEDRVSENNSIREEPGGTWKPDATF
Experiment: two-electrode voltage clamp, Xenopus oocytes
ASSAY_READOUT: IC50 (µM)
Numeric only. Scale: µM

Req: GET /values?readout=IC50&system=TbVCL2 (Trypanosoma brucei, UniProt Q389H3)&item= O=S(=O)(O)c1cc(N=C=S)ccc1/C=C/c1ccc(N=C=S)cc1S(=O)(=O)O
Resp: 30

###

Biological target: TbVCL3 (Trypanosoma brucei, UniProt Q381B7)
Construct: full-length, untagged cRNA in Xenopus laevis oocytes; dimer expected (CLC family), heterodimer with endogenous Xenopus CLC not excluded
Sequence (Q381B7 1-918): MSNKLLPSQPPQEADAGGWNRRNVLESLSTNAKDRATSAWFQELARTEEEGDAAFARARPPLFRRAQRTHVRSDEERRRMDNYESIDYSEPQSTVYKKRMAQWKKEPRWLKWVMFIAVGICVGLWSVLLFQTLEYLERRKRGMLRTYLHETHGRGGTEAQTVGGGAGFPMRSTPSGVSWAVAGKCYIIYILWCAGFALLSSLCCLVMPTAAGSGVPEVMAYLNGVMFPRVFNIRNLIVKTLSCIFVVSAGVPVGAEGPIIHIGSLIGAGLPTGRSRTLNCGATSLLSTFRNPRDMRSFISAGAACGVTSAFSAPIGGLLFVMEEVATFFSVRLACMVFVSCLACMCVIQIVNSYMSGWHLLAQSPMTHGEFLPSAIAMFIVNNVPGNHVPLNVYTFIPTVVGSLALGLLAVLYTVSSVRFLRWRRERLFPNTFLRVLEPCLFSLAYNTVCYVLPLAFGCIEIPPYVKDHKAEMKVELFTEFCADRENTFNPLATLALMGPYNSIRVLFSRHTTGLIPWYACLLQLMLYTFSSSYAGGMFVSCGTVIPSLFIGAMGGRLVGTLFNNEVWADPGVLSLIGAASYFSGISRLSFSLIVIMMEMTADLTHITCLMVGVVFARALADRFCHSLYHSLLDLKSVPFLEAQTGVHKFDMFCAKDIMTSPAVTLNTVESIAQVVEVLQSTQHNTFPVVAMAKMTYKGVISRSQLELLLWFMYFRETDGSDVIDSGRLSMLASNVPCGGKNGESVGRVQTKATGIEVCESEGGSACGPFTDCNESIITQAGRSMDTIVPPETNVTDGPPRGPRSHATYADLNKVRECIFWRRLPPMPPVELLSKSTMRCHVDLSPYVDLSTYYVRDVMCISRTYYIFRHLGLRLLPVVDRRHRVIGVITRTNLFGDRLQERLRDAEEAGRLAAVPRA
Test: two-electrode voltage clamp, Xenopus oocytes
ASSAY_READOUT: pIC50
# pIC50 = -log10(concentration in molar units)

Req: Return pIC50 measured with TbVCL3 (Trypanosoma brucei, UniProt Q381B7) given this compound: O=S(=O)(O)c1cc(N=C=S)ccc1/C=C/c1ccc(N=C=S)cc1S(=O)(=O)O
Resp: 4.25
